Origin of values: ChEMBL document CHEMBL2346537

measured on: Beta-secretase 1 (Mus musculus)
assay procedure: Inhibition of BACE1 in mouse Neuro2a cells expressing APP Swedish mutant assessed as inhibition of amyloid beta (1 to 40) production at 10 uM after 24 hrs by sandwich ELISA relative to control
Assay type: cell-based
measurement label: inhibition (%)

Answered cases to consult:
* N=c1oc2ccccc2cc1C(=O)Nc1cc(Br)ccc1N1CCN(Cc2ccccc2)CC1 | 58.3
* O=C(Nc1cc(Br)ccc1N1CCN(CCc2cc3ccccc3[nH]2)CC1)c1cc2ccccc2o/c1=N\c1ccccc1 | 57.6
* N#Cc1cccc(CN2CCN(c3ccc(Br)cc3NC(=O)c3cc4ccccc4o/c3=N\c3ccccc3)CC2)c1 | 51.8
* O=C(Nc1cc(Br)ccc1N1CCN(Cc2ccccc2)CC1)c1cc2ccccc2o/c1=N\c1ccccc1 | 64.7
* O=C(Nc1cc(Br)ccc1N1CCN(CCO)CC1)c1cc2ccccc2o/c1=N\c1ccccc1 | 48.2

(A) O=C(Nc1cc(Br)ccc1N1CCN(C(=O)c2ccco2)CC1)c1cc2ccccc2o/c1=N\c1ccccc1
(B) O=C(Nc1cc(Br)ccc1N1CCN(CCN2C(=O)c3ccccc3C2=O)CC1)c1cc2ccccc2o/c1=N\c1ccccc1
(C) COc1ccc(CN2CCN(c3ccc(Br)cc3NC(=O)c3cc4ccccc4o/c3=N\c3ccccc3)CC2)cc1
Order the records by inhibition, with each subsequent value no larger than the one before. Answer format: list of labels, ordered as asked. A, B, C
(A: 65.8%, B: 39.4%, C: 22.9%)

* * *

assay procedure: Cytotoxicity against mouse Neuro2a cells expressing APP Swedish mutant assessed as cell viability at 5 uM after 24 hrs by MTT assay relative to control
Assay type: cell-based, N2a
measurement setup: read-out: Activity
Below is a list of entries, each paired with its recorded viability at 24 h, 5 µM value.
API: value field is a number in %; no unit string.

Answered cases to consult:
* O=C(Nc1cc(Br)ccc1N1CCN(C(=O)c2ccco2)CC1)c1cc2ccccc2o/c1=N\c1ccccc1 | 93
* O=C(Nc1cc(Br)ccc1N1CCN(Cc2ccccc2)CC1)c1cc2ccccc2o/c1=N\c1ccccc1 | 102

Shift focus to the following entry.
If you can, please state the reported viability at 24 h, 5 µM value of COc1ccc(CN2CCN(c3ccc(Br)cc3NC(=O)c3cc4ccccc4o/c3=N\c3ccccc3)CC2)cc1 . 101

* * *

measured on: Beta-secretase 1 (Mus musculus) (UniProt P56818)
Sequence (P56818 whole entry): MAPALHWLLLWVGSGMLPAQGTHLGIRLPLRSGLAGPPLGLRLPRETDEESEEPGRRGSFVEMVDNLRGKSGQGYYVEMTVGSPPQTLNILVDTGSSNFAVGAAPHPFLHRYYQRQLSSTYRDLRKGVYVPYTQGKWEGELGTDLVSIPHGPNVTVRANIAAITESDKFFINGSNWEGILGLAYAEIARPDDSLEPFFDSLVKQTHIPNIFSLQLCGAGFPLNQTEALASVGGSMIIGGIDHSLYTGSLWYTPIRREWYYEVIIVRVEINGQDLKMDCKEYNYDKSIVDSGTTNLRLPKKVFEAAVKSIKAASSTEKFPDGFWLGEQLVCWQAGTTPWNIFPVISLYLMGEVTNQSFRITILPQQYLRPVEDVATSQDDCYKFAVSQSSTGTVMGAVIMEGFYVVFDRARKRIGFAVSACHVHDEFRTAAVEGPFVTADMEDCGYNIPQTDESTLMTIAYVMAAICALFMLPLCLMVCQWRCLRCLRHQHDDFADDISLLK
assay procedure: Inhibition of BACE1 in mouse Neuro2a cells expressing APP Swedish mutant assessed as inhibition of amyloid beta (1 to 40) production at 5 uM after 24 hrs by sandwich ELISA relative to control
Assay type: cell-based
measurement label: inhibition (%)

* O=C(Nc1cc(Br)ccc1N1CCN(CCO)CC1)c1cc2ccccc2o/c1=N\c1ccccc1 | 41.3
* O=C(Nc1cc(Br)ccc1N1CCN(Cc2ccccc2)CC1)c1cc2ccccc2o/c1=N\c1ccccc1 | 60.9
* O=C(Nc1cc(Br)ccc1N1CCN(CCc2cc3ccccc3[nH]2)CC1)c1cc2ccccc2o/c1=N\c1ccccc1 | 37.8
* O=C(Nc1cc(Br)ccc1N1CCN(C(=O)c2ccco2)CC1)c1cc2ccccc2o/c1=N\c1ccccc1 | 53.1

* * *

measured on: Beta-secretase 1 (Homo sapiens, UniProt P56817)
Sequence (P56817 whole entry): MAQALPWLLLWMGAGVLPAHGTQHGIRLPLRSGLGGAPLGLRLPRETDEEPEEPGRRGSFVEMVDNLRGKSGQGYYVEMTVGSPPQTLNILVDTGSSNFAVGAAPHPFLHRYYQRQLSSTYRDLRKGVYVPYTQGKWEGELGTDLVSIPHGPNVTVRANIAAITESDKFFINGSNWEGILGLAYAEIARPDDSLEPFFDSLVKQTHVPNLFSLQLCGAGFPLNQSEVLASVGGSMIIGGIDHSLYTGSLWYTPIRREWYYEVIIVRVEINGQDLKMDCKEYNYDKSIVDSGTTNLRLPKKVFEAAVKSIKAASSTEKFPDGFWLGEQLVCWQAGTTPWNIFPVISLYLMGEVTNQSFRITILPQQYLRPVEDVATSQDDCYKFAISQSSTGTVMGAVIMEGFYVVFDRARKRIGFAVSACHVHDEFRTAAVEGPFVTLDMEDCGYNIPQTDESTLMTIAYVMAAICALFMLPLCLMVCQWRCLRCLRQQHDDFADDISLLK
assay procedure: Inhibition of BACE1 (unknown origin) expressed in baculovirus expression system using Rh-EVNLDAEFK-Quencher as substrate after 90 mins by FRET assay
measurement label: IC50 (nM)

* CC(C)(C)OC(=O)N1CCN(c2ccc(Br)cc2NC(=O)c2cc3ccccc3o/c2=N\c2ccccc2)CC1 | 9810
* O=C(Nc1cc(Br)ccc1N1CCN(Cc2ccccc2)CC1)c1cc2ccccc2o/c1=N\c1ccccc1 | 503
* O=C(Nc1cc(Br)ccc1N1CCN(CCO)CC1)c1cc2ccccc2o/c1=N\c1ccccc1 | 849
* N#Cc1cccc(CN2CCN(c3ccc(Br)cc3NC(=O)c3cc4ccccc4o/c3=N\c3ccccc3)CC2)c1 | 119

(A) O=C(Nc1cc(Br)ccc1N1CCN(C(=O)c2ccco2)CC1)c1cc2ccccc2o/c1=N\c1ccccc1
(B) COc1ccccc1C(=O)N1CCN(c2ccc(Br)cc2NC(=O)c2cc3ccccc3o/c2=N\c2ccccc2)CC1
I need your help: which of the pair A , B has higher IC50? // return label of chosen record B
(B: 25700 nM, A: 741 nM)

* * *

measured on: Beta-secretase 1 (Mus musculus) (UniProt P56818)
assay procedure: Inhibition of BACE1 in mouse Neuro2a cells expressing APP Swedish mutant assessed as inhibition of amyloid beta (1 to 40) production at 5 uM after 24 hrs by sandwich ELISA relative to control
Format: cell-based
measurement label: inhibition (%)

(A) O=C(Nc1cc(Br)ccc1N1CCN(CCCN2C(=O)c3ccccc3C2=O)CC1)c1cc2ccccc2o/c1=N\c1ccccc1
(B) N=c1oc2ccccc2cc1C(=O)Nc1cc(Br)ccc1N1CCN(Cc2ccccc2)CC1
(C) O=C(Nc1cc(Br)ccc1N1CCN(CCN2C(=O)c3ccccc3C2=O)CC1)c1cc2ccccc2o/c1=N\c1ccccc1
rank_up(items): orders items by reported inhibition in ascending numerical order. Answer format: list of labels, ordered as asked. C, B, A

* * *

Here's a batch of molecules along with measured IC50 for UniProt:P56817.

Answered cases to consult:
- CC(C)(C)OC(=O)N1CCN(c2ccc(Br)cc2NC(=O)c2cc3ccccc3oc2=N)CC1: > 10 µM
- COc1cccc2cc(C(=O)Nc3cc(Br)ccc3N3CCN(Cc4ccccc4)CC3)/c(=N/c3ccccc3)oc12: > 10 µM

If you can, please state the reported IC50 value of COc1cccc2cc(C(=O)Nc3cc(Br)ccc3N3CCN(Cc4ccccc4)CC3)c(=N)oc12 . > 10 µM
